Target: Growth hormone secretagogue receptor type 1 (Homo sapiens, UniProt Q92847)
Sequence (Q92847 whole entry): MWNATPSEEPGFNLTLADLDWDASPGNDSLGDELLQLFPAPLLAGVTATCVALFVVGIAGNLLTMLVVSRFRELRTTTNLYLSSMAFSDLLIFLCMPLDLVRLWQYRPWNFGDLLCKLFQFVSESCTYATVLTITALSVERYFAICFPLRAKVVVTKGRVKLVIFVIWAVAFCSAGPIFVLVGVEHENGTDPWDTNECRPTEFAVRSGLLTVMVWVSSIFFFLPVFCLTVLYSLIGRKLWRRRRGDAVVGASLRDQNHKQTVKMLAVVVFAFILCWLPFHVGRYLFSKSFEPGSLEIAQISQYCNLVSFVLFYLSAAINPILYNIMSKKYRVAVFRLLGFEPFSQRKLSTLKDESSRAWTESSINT
Assay: Displacement of [125I]ghrelin expressed in LLC-PK1 cells incubated for 1 hr by gamma counting method
pIC50: −log10 of the molar value. Starred links: 1 amine or outer side, 2 acyl side, 3 side chain; linkers in the order of their positions; H or OH if unused. Non-standard residues stand in square brackets, D forms with d. Residues, ends and D or L forms follow the SMILES beside them. azaPhe = O=C(N(Cc1ccccc1)N[*:1])[*:2]
MEASURED ENDPOINT: pIC50

Study these solved cases before continuing.
C[C@H](N)C(=O)NN(Cc1ccccc1)C(=O)N[C@@H](C)C(=O)N[C@@H](Cc1c[nH]c2ccccc12)C(=O)N[C@H](Cc1ccccc1)C(=O)N[C@@H](CCCCN)C(N)=O (H-A[azaPhe]AW[dF]K-NH2) | < 5.00
C[C@H](NC(=O)[C@H](C)NC(=O)N(Cc1ccccc1)NC(=O)C(N)Cc1cnc[nH]1)C(=O)N[C@H](Cc1ccccc1)C(=O)N[C@@H](CCCCN)C(N)=O (stereo partly drawn) | < 5.00

Now for the compound whose pIC50 we want.
Notebook: "CC(C)CN(NC(=O)[C@H](N)Cc1c[nH]c2ccccc12)C(=O)N[C@@H](Cc1c[nH]c2ccccc12)C(N)=O" , pIC50 read as < 5.00

====

Target: Platelet glycoprotein 4 (Rattus norvegicus, UniProt Q07969)
Sequence (Q07969 whole entry): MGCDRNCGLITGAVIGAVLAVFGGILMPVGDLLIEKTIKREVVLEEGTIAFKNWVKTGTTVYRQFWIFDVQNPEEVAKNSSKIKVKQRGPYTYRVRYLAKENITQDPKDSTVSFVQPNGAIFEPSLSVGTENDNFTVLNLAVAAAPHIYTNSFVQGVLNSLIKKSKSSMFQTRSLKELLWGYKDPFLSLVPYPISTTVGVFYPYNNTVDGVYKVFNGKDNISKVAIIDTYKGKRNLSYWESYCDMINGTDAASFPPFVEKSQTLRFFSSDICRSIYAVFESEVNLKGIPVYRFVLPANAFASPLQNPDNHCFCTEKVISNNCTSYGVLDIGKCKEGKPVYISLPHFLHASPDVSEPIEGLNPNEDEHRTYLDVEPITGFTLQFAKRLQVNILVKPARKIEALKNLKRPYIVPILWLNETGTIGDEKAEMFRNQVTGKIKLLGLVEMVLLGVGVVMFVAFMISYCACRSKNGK
Assay: Displacement of photoactivatable [125I]-Tyr-Bpa-Ala-Hexarelin from CD36 in Sprague-Dawley rat cardiac membranes incubated for 60 mins by densitometry
Starred links: 1 amine or outer side, 2 acyl side, 3 side chain; linkers in the order of their positions; H or OH if unused. Non-standard residues stand in square brackets, D forms with d. Residues, ends and D or L forms follow the SMILES beside them. azaLeu = CC(C)CN(N[*:1])C(=O)[*:2]; azaPro = O=C(N1CCCN1[*:1])[*:2]; azaGly = NNC(=O)O
MEASURED ENDPOINT: IC50 (µM)
# value in µM; strip the unit string

Notebook: "CC(C)CN(NC(=O)[C@@H](Cc1c[nH]c2ccccc12)NC(=O)CN)C(=O)N[C@@H](Cc1c[nH]c2ccccc12)C(=O)N[C@H](Cc1ccccc1)C(=O)N[C@@H](CCCCN)C(N)=O" , IC50 read as 10.5

Notebook: CC(C)CN(NC(=O)[C@@H](Cc1c[nH]c2ccccc12)NC(=O)[C@@H](N)Cc1cnc[nH]1)C(=O)N[C@@H](Cc1c[nH]c2ccccc12)C(=O)N[C@H](C)C(=O)N[C@@H](CCCCN)C(N)=O (H-H[dW][azaLeu]W[dA]K-NH2) , IC50 read as 9.48

Notebook: C[C@H](N)C(=O)N[C@H](Cc1c[nH]c2ccccc12)C(=O)NNC(=O)N[C@@H](Cc1c[nH]c2ccccc12)C(=O)N[C@H](Cc1ccccc1)C(=O)N[C@@H](CCCCN)C(N)=O (H-A[dW][azaGly]W[dF]K-NH2) , IC50 read as 6.06

Notebook: NCCCC[C@H](NC(=O)[C@@H](Cc1ccccc1)NC(=O)[C@H](Cc1c[nH]c2ccccc12)NC(=O)N1CCCN1C(=O)[C@@H](Cc1c[nH]c2ccccc12)NC(=O)[C@@H](N)Cc1cnc[nH]1)C(N)=O (H-H[dW][azaPro]W[dF]K-NH2) , IC50 read as 9.81
